test system: production and secretion of NGF in mouse L-M cells; assay: Promoting activity for the production and secretion of NGF in mouse L-M cells (ELISA of medium after 24 h); type: cell-based; settings: Table 1; L-M cells; sample concentration 0.2 mM; 24 hours; mean of four determinations; control 0.33
If the reported NGF Concentration equals or exceeds 3 ng/well, assign TRUE. If not, assign FALSE.

# compound, assigned category
records = [
    ("CCCCNCCc1ccc(O)c(O)c1", "TRUE"),
    ("CCN(C)CCc1ccc(OC(C)=O)c(OC(C)=O)c1", "TRUE"),
    ("CCC(=O)NCc1ccc(O)c(O)c1", "FALSE"),
    ("NCCc1ccc(O)c(O)c1 [Comparative compound, reference compound]", "FALSE"),
]

Enquiry: Quick check, NGF Concentration >= 3 ng/well? CCC(=O)NCCCc1ccc(O)c(O)c1
Return: FALSE

###

system: production and secretion of NGF in mouse L-M cells; assay: Promoting activity for the production and secretion of NGF in mouse L-M cells (ELISA of medium after 24 h); format: cell-based; conditions: Table 2; L-M cells; sample concentration 0.2 mM; 24 hours; mean of four determinations; control 0.34
endpoint label: NGF Concentration (ng/well)
Numbers only, in ng/well.

# molecule, assay target, NGF Concentration (ng/well)
rows = [
    ("CCCCOC(=O)Cc1ccc(OC(C)=O)c(OC(C)=O)c1 [Compound 53]", "production and secretion of NGF in mouse L-M cells", 1.63),
    ("COC(=O)Cc1ccc(OC(C)=O)c(OC(C)=O)c1 [Compound 50]", "production and secretion of NGF in mouse L-M cells", 1.73),
    ("CCCCNC(=O)CCCc1ccc(OC(C)=O)c(OC(C)=O)c1 [Compound 80]", "production and secretion of NGF in mouse L-M cells", 1.95),
    ("COC(=O)CCCc1ccc(OC(C)=O)c(OC(C)=O)c1 [Compound 54]", "production and secretion of NGF in mouse L-M cells", 1.88),
    ("COC(=O)CCCc1ccc(O)c(O)c1 [Compound 42]", "production and secretion of NGF in mouse L-M cells", 1.81),
]

Would you mind listing NGF Concentration for each of the following molecules?
1. CCCCOC(=O)CCCc1ccc(O)c(O)c1 [Compound 45]
2. CCNC(=O)Cc1ccc(O)c(O)c1 [Compound 64]

Return:
1.84
1.81

###

I'd be grateful if you could share measured NGF Concentration for these entries.
tested on: production and secretion of NGF in mouse L-M cells; assay: Promoting activity for the production and secretion of NGF in mouse L-M cells (ELISA of medium after 24 h); assay type: cell-based; conditions: Table 2; L-M cells; sample concentration 0.2 mM; 24 hours; mean of four determinations; control 0.34
Numbers only, in ng/well.

Example cases with answers are listed next.
# smiles code, NGF Concentration [ng/well]
rows = [
    ("CC(=O)Oc1ccc(CCCC(N)=O)cc1OC(C)=O", 1.79),
    ("CCCOC(=O)CCCc1ccc(O)c(O)c1", 1.91),
    ("COC(=O)CCc1ccc(O)c(O)c1", 1.97),
    ("CCCCOC(=O)CCc1ccc(O)c(O)c1", 1.85),
    ("CCCOC(=O)CCc1ccc(OC(C)=O)c(OC(C)=O)c1", 2.13),
    ("CCOC(=O)Cc1ccc(O)c(O)c1", 1.78),
    ("CCOC(=O)CCCc1ccc(O)c(O)c1", 1.88),
    ("CCNC(=O)CCc1ccc(O)c(O)c1", 1.84),
]

Would you mind listing NGF Concentration for each of the following compounds?
1. CCCOC(=O)Cc1ccc(OC(C)=O)c(OC(C)=O)c1
2. CCCOC(=O)Cc1ccc(O)c(O)c1
3. CC(=O)Oc1ccc(CC(N)=O)cc1OC(C)=O

Return:
1. 1.88
2. 1.84
3. 2.03

###

tested on: production and secretion of NGF in mouse brain astroglial cells; experiment: Promoting activity for the production and secretion of NGF in mouse brain astroglial cells (ELISA of medium after 24 h); assay type: cell-based; conditions: Mus musculus, 24 h, Table 4, sample concentration 0.4 mM, fold increase over control, read-out: NGF Increase Ratio
endpoint label: fold induction at 400 µM
Answers are plain numbers.

# compound, endpoint label, endpoint value
rows = [
    ("CCOC(=O)CCc1ccc(OC(C)=O)c(OC(C)=O)c1 [Compound 47, Ethyl 3,4-diacetoxyphenylpropionate]", "fold induction at 400 µM", 5.11),
    ("CC(=O)Oc1ccc(CCC(=O)N(C)C)cc1OC(C)=O", "fold induction at 400 µM", 6.33),
    ("CCNC(=O)CCCc1ccc(OC(C)=O)c(OC(C)=O)c1", "fold induction at 400 µM", 4.57),
    ("CCOC(=O)CCCc1ccc(OC(C)=O)c(OC(C)=O)c1", "fold induction at 400 µM", 4.39),
    ("CCNC(=O)Cc1ccc(OC(C)=O)c(OC(C)=O)c1", "fold induction at 400 µM", 4.84),
]

Would you mind listing fold induction at 400 µM for each of the following compounds?
1. CCCCNC(=O)CCc1ccc(OC(C)=O)c(OC(C)=O)c1
2. CCOC(=O)Cc1ccc(OC(C)=O)c(OC(C)=O)c1
3. CC(=O)Oc1ccc(CCC(N)=O)cc1OC(C)=O
4. CCNC(=O)CCc1ccc(OC(C)=O)c(OC(C)=O)c1
5. CCCCOC(=O)CCc1ccc(OC(C)=O)c(OC(C)=O)c1

Return:
[8.82, 4.5, 7.65, 6.53, 5.18]

###

system: production and secretion of NGF in mouse L-M cells; experiment: Promoting activity for the production and secretion of NGF in mouse L-M cells (ELISA of medium after 24 h); type: cell-based; settings: Table 1; L-M cells; sample concentration 0.2 mM; 24 hours; mean of four determinations; control 0.33
I'd be grateful if you could share measured NGF Concentration for these entries.
The reply should read as a number followed by its unit.

# smiles code, assay target, NGF Concentration
records = [
    ("CCC(=O)NCCc1ccc(O)c(O)c1", "production and secretion of NGF in mouse L-M cells", "3.10 ng/well"),
]

Would you mind listing NGF Concentration for each of the following compounds?
1. CCNCCCc1ccc(O)c(O)c1
2. CNCc1ccc(O)c(O)c1
3. CNCCCc1ccc(O)c(O)c1
4. CC(=O)Oc1ccc(CCN(C)C)cc1OC(C)=O

Return:
1: 2.89 ng/well; 2: 2.97 ng/well; 3: 2.84 ng/well; 4: 3.80 ng/well

###

I'd be grateful if you could share measured NGF Concentration for these entries.
tested on: production and secretion of NGF in mouse L-M cells; experiment: Promoting activity for the production and secretion of NGF in mouse L-M cells (ELISA of medium after 24 h); assay type: cell-based; settings: Table 1; L-M cells; sample concentration 0.2 mM; 24 hours; mean of four determinations; control 0.33
Numbers only, in ng/well.

# smiles code, endpoint value
data = [
    ("CCC(=O)NCCc1ccc(OC(C)=O)c(OC(C)=O)c1", 3.49),
]

Would you mind listing NGF Concentration for each of the following molecules?
1. CCCCNCc1ccc(O)c(O)c1
2. CCCC(=O)NCCc1ccc(OC(C)=O)c(OC(C)=O)c1
3. Br.CCNCCc1ccc(O)c(O)c1
4. CCCC(=O)NCCCc1ccc(O)c(O)c1
5. CC(=O)N(C)CCc1ccc(O)c(O)c1

Return:
2.91
2.95
3.50
2.75
3.20

Would you mind listing NGF Concentration for each of the following molecules?
1. CC(=O)NCc1ccc(OC(C)=O)c(OC(C)=O)c1
2. CCCC(=O)NCCc1ccc(O)c(O)c1

Return:
2.72
3.18

###

test system: production and secretion of NGF in mouse brain astroglial cells; assay: Promoting activity for the production and secretion of NGF in mouse brain astroglial cells (ELISA of medium after 24 h); assay type: cell-based; conditions: Mus musculus, 24 h, Table 3, sample concentration 0.4 mM, fold increase over control (1.00), read-out: NGF Increase Ratio
I'd be grateful if you could share measured fold induction at 400 µM for these entries.
Give bare numbers.

Example cases with answers are listed next.
# compound, assay target, endpoint label, endpoint value
records = [
    ("CC(=O)NCCc1ccc(OC(C)=O)c(OC(C)=O)c1", "production and secretion of NGF in mouse brain astroglial cells", "fold induction at 400 µM", 4.7),
    ("CNCCCc1ccc(O)c(O)c1", "production and secretion of NGF in mouse brain astroglial cells", "fold induction at 400 µM", 4.17),
    ("CCCC(=O)N(C)CCc1ccc(O)c(O)c1", "production and secretion of NGF in mouse brain astroglial cells", "fold induction at 400 µM", 4.89),
    ("CC(=O)N(C)CCc1ccc(O)c(O)c1", "production and secretion of NGF in mouse brain astroglial cells", "fold induction at 400 µM", 4.85),
    ("CCCCNCCCc1ccc(O)c(O)c1", "production and secretion of NGF in mouse brain astroglial cells", "fold induction at 400 µM", 4.26),
    ("CCCCN(C)CCc1ccc(OC(C)=O)c(OC(C)=O)c1", "production and secretion of NGF in mouse brain astroglial cells", "fold induction at 400 µM", 4.74),
    ("CC(=O)NCCCc1ccc(O)c(O)c1", "production and secretion of NGF in mouse brain astroglial cells", "fold induction at 400 µM", 4.46),
    ("Br.CCNCCc1ccc(O)c(O)c1 [Compound 19, hydrobromide]", "production and secretion of NGF in mouse brain astroglial cells", "fold induction at 400 µM", 4.17),
    ("CCCCN(C)CCc1ccc(O)c(O)c1", "production and secretion of NGF in mouse brain astroglial cells", "fold induction at 400 µM", 4.82),
    ("CC(=O)NCCc1ccc(O)c(O)c1 [Compound 1, N-Acetyl-3,4-dihydroxyphenethylamine]", "production and secretion of NGF in mouse brain astroglial cells", "fold induction at 400 µM", 4.94),
]

Kindly consider the entry below.
Log: production and secretion of NGF in mouse brain astroglial cells, compound CCCCNCCc1ccc(O)c(O)c1 , fold induction at 400 µM = 4.91
